Data origin: patent US4789542A

# assay: Distribution of radioactivity in tissues of female rats after intravenous administration
# Assay type: in vivo
# measurement.setup: rat, blood, iv, 60 min (1 hr), mean, read-out: Distribution of radioactivity, Blood
value.kind: tissue uptake at 1 h (%ID/g)
Answers are plain numbers, in %ID/g.

Please supply the value of reported tissue uptake at 1 h for the item CO[C@@H]1O[C@H](COC(C)=O)[C@@H](OC(C)=O)[C@@H](OC(C)=O)[C@@H]1/C=C/[125I]
0.653

* * *

# assay: Distribution of radioactivity in tissues of female rats after intravenous administration
# Format: in vivo
# measurement.setup: rat, kidney, iv, 30 min, mean, read-out: Distribution of radioactivity, Kidney
value.kind: tissue uptake at 0.5 h

Please supply the value of reported tissue uptake at 0.5 h for the item CO[C@@H]1O[C@H](COC(C)=O)[C@@H](OC(C)=O)[C@@H](OC(C)=O)[C@@H]1/C=C/[125I]
1.7 %ID/g

* * *

# assay: Distribution of radioactivity in tissues of female rats after intravenous administration
# Format: in vivo
# measurement.setup: rat, brain, iv, 15 min, mean, read-out: Distribution of radioactivity, Brain
value.kind: tissue uptake at 0.25 h (%ID/g)
One number for each entry, in %ID/g.

Please supply the value of reported tissue uptake at 0.25 h for the item CO[C@@H]1O[C@H](COC(C)=O)[C@@H](OC(C)=O)[C@@H](OC(C)=O)[C@@H]1/C=C/[125I]
1.19

* * *

# assay: Distribution of radioactivity in tissues of female rats after intravenous administration
# Assay type: in vivo
# measurement.setup: rat, liver, iv, 60 min (1 hr), mean, read-out: Distribution of radioactivity, Liver
value.kind: tissue uptake at 1 h (%ID/g)
Numbers only, in %ID/g.

Please supply the value of reported tissue uptake at 1 h for the item CO[C@@H]1O[C@H](COC(C)=O)[C@@H](OC(C)=O)[C@@H](OC(C)=O)[C@@H]1/C=C/[125I]
1.05

* * *

# assay: Distribution of radioactivity in tissues of female rats after intravenous administration
# Type: in vivo
# measurement.setup: rat, blood, iv, 15 min, mean, read-out: Distribution of radioactivity, Blood
value.kind: tissue uptake at 0.25 h (%ID/g)
Answers are plain numbers, in %ID/g.

Please supply the value of reported tissue uptake at 0.25 h for the item CO[C@@H]1O[C@H](COC(C)=O)[C@@H](OC(C)=O)[C@@H](OC(C)=O)[C@@H]1/C=C/[125I]
0.933

* * *

# assay: Distribution of radioactivity in tissues of female rats after intravenous administration
# Format: in vivo
# measurement.setup: rat, thyroid, iv, 30 min, mean, read-out: Distribution of radioactivity, Thyroid
value.kind: tissue uptake at 0.5 h (%ID/g)
Give bare numbers, in %ID/g.

Please supply the value of reported tissue uptake at 0.5 h for the item CO[C@@H]1O[C@H](COC(C)=O)[C@@H](OC(C)=O)[C@@H](OC(C)=O)[C@@H]1/C=C/[125I]
25.7

* * *

# assay: Distribution of radioactivity in tissues of female rats after intravenous administration
# Type: in vivo
# measurement.setup: rat, kidney, iv, 60 min (1 hr), mean, read-out: Distribution of radioactivity, Kidney
value.kind: tissue uptake at 1 h (%ID/g)
Numbers only, in %ID/g.

Please supply the value of reported tissue uptake at 1 h for the item CO[C@@H]1O[C@H](COC(C)=O)[C@@H](OC(C)=O)[C@@H](OC(C)=O)[C@@H]1/C=C/[125I]
1.57

* * *

# assay: Distribution of radioactivity in tissues of female rats after intravenous administration
# Type: in vivo
# measurement.setup: rat, brain, iv, 60 min (1 hr), mean, read-out: Distribution of radioactivity, Brain
value.kind: tissue uptake at 1 h

Please supply the value of reported tissue uptake at 1 h for the item CO[C@@H]1O[C@H](COC(C)=O)[C@@H](OC(C)=O)[C@@H](OC(C)=O)[C@@H]1/C=C/[125I]
0.72 %ID/g

* * *

# assay: Distribution of radioactivity in tissues of female rats after intravenous administration
# Type: in vivo
# measurement.setup: rat, brain, iv, 30 min, mean, read-out: Distribution of radioactivity, Brain
value.kind: tissue uptake at 0.5 h (%ID/g)
One number for each entry, in %ID/g.

Please supply the value of reported tissue uptake at 0.5 h for the item CO[C@@H]1O[C@H](COC(C)=O)[C@@H](OC(C)=O)[C@@H](OC(C)=O)[C@@H]1/C=C/[125I]
0.891

* * *

# assay: Distribution of radioactivity in tissues of female rats after intravenous administration
# Assay type: in vivo
# measurement.setup: rat, blood, iv, 30 min, mean, read-out: Distribution of radioactivity, Blood
value.kind: tissue uptake at 0.5 h (%ID/g)
Numbers only, in %ID/g.

Please supply the value of reported tissue uptake at 0.5 h for the item CO[C@@H]1O[C@H](COC(C)=O)[C@@H](OC(C)=O)[C@@H](OC(C)=O)[C@@H]1/C=C/[125I]
0.0037

* * *

# assay: Distribution of radioactivity in tissues of female rats after intravenous administration
# Type: in vivo
# measurement.setup: rat, kidney, iv, 15 min, mean, read-out: Distribution of radioactivity, Kidney
value.kind: tissue uptake at 0.25 h
Answer format reminder: number followed by unit.

Please supply the value of reported tissue uptake at 0.25 h for the item CO[C@@H]1O[C@H](COC(C)=O)[C@@H](OC(C)=O)[C@@H](OC(C)=O)[C@@H]1/C=C/[125I]
1.57 %ID/g

* * *

# assay: Distribution of radioactivity in tissues of female rats after intravenous administration
# Assay type: in vivo
# measurement.setup: rat, lung, iv, 30 min, mean, read-out: Distribution of radioactivity, Lung
value.kind: tissue uptake at 0.5 h (%ID/g)
Answers are plain numbers, in %ID/g.

Please supply the value of reported tissue uptake at 0.5 h for the item CO[C@@H]1O[C@H](COC(C)=O)[C@@H](OC(C)=O)[C@@H](OC(C)=O)[C@@H]1/C=C/[125I]
0.833

* * *

# assay: Distribution of radioactivity in tissues of female rats after intravenous administration
# Type: in vivo
# measurement.setup: rat, liver, iv, 15 min, mean, read-out: Distribution of radioactivity, Liver
value.kind: tissue uptake at 0.25 h
Answer format reminder: number followed by unit.

Please supply the value of reported tissue uptake at 0.25 h for the item CO[C@@H]1O[C@H](COC(C)=O)[C@@H](OC(C)=O)[C@@H](OC(C)=O)[C@@H]1/C=C/[125I]
1.37 %ID/g

* * *

# assay: Distribution of radioactivity in tissues of female rats after intravenous administration
# Type: in vivo
# measurement.setup: rat, lung, iv, 5 min, mean, read-out: Distribution of radioactivity, Lung
value.kind: tissue uptake at 5 min (%ID/g)
Answers are plain numbers, in %ID/g.

Please supply the value of reported tissue uptake at 5 min for the item CO[C@@H]1O[C@H](COC(C)=O)[C@@H](OC(C)=O)[C@@H](OC(C)=O)[C@@H]1/C=C/[125I]
1.19

* * *

# assay: Distribution of radioactivity in tissues of female rats after intravenous administration
# Type: in vivo
# measurement.setup: rat, lung, iv, 60 min (1 hr), mean, read-out: Distribution of radioactivity, Lung
value.kind: tissue uptake at 1 h (%ID/g)
Numbers only, in %ID/g.

Please supply the value of reported tissue uptake at 1 h for the item CO[C@@H]1O[C@H](COC(C)=O)[C@@H](OC(C)=O)[C@@H](OC(C)=O)[C@@H]1/C=C/[125I]
0.663

* * *

# assay: Distribution of radioactivity in tissues of female rats after intravenous administration
# Assay type: in vivo
# measurement.setup: rat, thyroid, iv, 15 min, mean, read-out: Distribution of radioactivity, Thyroid
value.kind: tissue uptake at 0.25 h (%ID/g)
Answers are plain numbers, in %ID/g.

Please supply the value of reported tissue uptake at 0.25 h for the item CO[C@@H]1O[C@H](COC(C)=O)[C@@H](OC(C)=O)[C@@H](OC(C)=O)[C@@H]1/C=C/[125I]
18.9

* * *

# assay: Distribution of radioactivity in tissues of female rats after intravenous administration
# Format: in vivo
# measurement.setup: rat, thyroid, iv, 60 min (1 hr), mean, read-out: Distribution of radioactivity, Thyroid
value.kind: tissue uptake at 1 h
Answer format reminder: number followed by unit.

Please supply the value of reported tissue uptake at 1 h for the item CO[C@@H]1O[C@H](COC(C)=O)[C@@H](OC(C)=O)[C@@H](OC(C)=O)[C@@H]1/C=C/[125I]
33.5 %ID/g
